- testedSystem: UV-inactivated SARS-CoV preparation (Frankfurt 1 strain) (SARS-CoV strain Frankfurt 1)
- assayDetails: phage ELISA, plate 4 (no phage 0.051)
measuredProperty: OD492nm (OD492nm)
Your answer should be a plain number; it is taken to be in OD492nm.

{"binder": "SC03-038 (scFv) scFv: AMAEVQLVQSGGGLIQPGGSLRLSCAASGFTVSSNYMSWVRQAPGKGLEWVSIVFSGGSTYYADSVKGRFTISRDNSKNTLYLQMNSLRAEDTAVYYCARDAHRGFGMDVWGQGTTVTVSSGTGGSGGTGSGTGGSTSSELTQDPAVSVALGQTVRITCQGDSLRSYYASWYQQKPGQAPVLVIYGKNNRPSGIPDRFSGSSSGDTASLTITGAQAEDEADYYCNSRDSSGNHWVFGGGTKLTVLGAA", "unitName": "OD492nm", "OD492nm": 0.314}
{"binder": "SC03-054 (scFv) scFv: AMAEVQLVQSGGGVVQPGRSLRLSCAASGFTFSSYAMHWVRQAPGKGLEYVSGISSNGGSTYYANSVKGRFTISRDNSKNTLYLQMGSLRAEDMAVYYCARTTNRAFDIWGQGTMVTVSSGTGGSGGTGSGTGGSTDIQLTQSPDSLAVSLGERATINCKSSQSVLYSSNNKNYLAWYQQKPGQPPKLLIYWASTRESGVPDRFSGGGSGTDFTLTISSLQAEDVAVYYCQQYYSTPYSFGQGTKVEIKRAA", "unitName": "OD492nm", "OD492nm": 0.428}

Problem: Identify measured OD492nm corresponding to SC03-031 (scFv) scFv: AMAQVQLVQSGADVKKPGSSVKVSCEASGGTFSSYAISWVRQAPGQGLEWMGRIIPILGITNYAQKFQGRVTITADKSTGTGNMELSSLRSEDTAVYYCARESGGGYDNHFDYWGQGTLVTVSSGTGGSGGTGSGTGGSTQSVLTQPPSASGTPGQRVTISCSGGSSNIGSNTVNWYQQLPGTAPKLVIYANNQRPSGVPDRFSASKSGTSASLAISGLQSEDEADYYCAAWDDSLTGGVFGGGTQLTVLSAA
Result: 0.635
